Values from PubChem BioAssay (NCI)

Test system: MDA-MB-231 breast
experiment_summary: NCI tumour cell line growth inhibition, 48 h
measure: TGI
Include the unit right after the number.

# TGI (compound: COc1cc2c(cc1OCCCN1CCN(C(=S)SCCC(C#N)(c3ccccc3)c3ccccc3)CC1)N=C[C@@H]1CCCN1C2=O ) is 3.19 µM

The measured TGI associated with Nc1ncnc2c1ccn2-c1cccc(NC(=O)c2ccc(N3CCOCC3)c(C(F)(F)F)c2)c1 reads 10.9 µM

Memo: CO/C(=C1/NC(=O)C(Cc2ccc(O)c(Br)c2)N(C)C(=O)C(C)NC(=O)CCC/C=C(\C)CCC(C)OC1=O)c1ccccc1 (centres undefined) , reported TGI: 6.58 µM

So for OCC1OC(n2cnc3c(Cl)nc(Nc4ccc(Cl)c(Cl)c4)nc32)CC1O (centres undefined) , the logged TGI turned out to be 23.5 µM
